Entry source: the RepoRT retention time repository (doi:10.1016/j.foodchem.2021.129757)

# assay.details: RP, Waters ACQUITY UPLC HSS T3, 100 × 2.1 mm, 50 °C; A: water + 0.1% formic acid, pH 3; B: 30% methanol + 70% acetonitrile + 0.1% formic acid, pH 3; gradient (min/%B) 0/5 1/8 2/15 3/40 4/70 4.5/100 5/100 6.4/100 6.6/5 6.8/5 7/5
# details: stereoisomer not certain
endpoint: LC retention time (min)
Numbers only, in min.

O=C(O)C(O)Cc1c[nH]c2ccccc12 (stereo not drawn)	3.53
O=C(O)C1OC(Oc2ccccc2O)C(O)C(O)C1O (stereo not drawn) [Catechol-O-1-glucuronide]	2.65
Cn1c(=O)[nH]c(=O)c2[nH]cnc21	1.45

For each listed entry, give its LC retention time.
1. O=C(O)/C=C/c1cccc(O)c1
2. O=C(O)C1OC(Oc2ccc(O)cc2)C(O)C(O)C1O (stereo not drawn) [Hydroquinone glucuronide]
3. O=C(Cc1c[nH]c2ccccc12)OC1OC(C(=O)O)C(O)C(O)C1O (stereo not drawn) [Indole-3-acetic acid glucuronide]

1. 3.53
2. 0.909
3. 3.46

For each listed entry, give its LC retention time.
1. COc1cc(-c2oc3cc(O)cc(O)c3c(=O)c2O)ccc1OC1OC(C(=O)O)C(O)C(O)C1O (stereo not drawn) [Isorhamnetin 4'-O-glucuronide]
2. c1coc(CNc2ncnc3nc[nH]c23)c1

1. 3.58
2. 3.03
